# Protocol Summary: chemical genetic growth profiling, strain panel (AID 1159580);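 further: tested at 20 µM; growth read once vehicle control cultures reached saturation at 30 °C; 1 = growth at the plate median or of vehicle wells; lower values mean less growth of the strain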
# Study Conditions: S. cerevisiae deletion strains, growth OD, locus YBR171W, strain sec66, hits give low values
In all, about 5,500 compounds went through this assay and about 2,000 (36%) were called active. Roughly 18% stayed inconclusive and do not appear here. The list shows a part of the results.
# key: entry, value: normalized growth

| Compound | normalized growth |
| --- | --- |
| CN[C@@H](C)[C@@H](O)c1ccccc1 | 0.993 |
| COP(=O)(OC)OC=C(Cl)Cl | 1.01 |
| CC1=C(C/C=C(\C)CCC[C@H](C)CCC[C@H](C)CCCC(C)C)C(=O)c2ccccc2C1=O | 0.993 |
| CC(NCCc1ccc(O)cc1)C(O)c1ccc(O)cc1 (configuration not stated) | 0.994 |
| CN1CCC(=C2c3ccccc3CC(=O)c3sccc32)CC1 | 0.964 |
| C[C@H]1CC2C([C@@H](O)C[C@@]3(C)C2CC[C@]3(O)C(=O)CO)[C@@]2(C)C=CC(=O)C=C12 (some centres not stated) | 0.993 |
| O=C(O)c1c2ccccc2cc2ccccc12 | 0.994 |
| O=C(O)c1cc2ccccc2c(Cc2c(O)c(C(=O)O)cc3ccccc23)c1O | 1 |
| CCN(CCO)CCCC(C)Nc1ccnc2cc(Cl)ccc12 (configuration not stated) | 1.01 |
| CN1CCC(=C2c3ccccc3Sc3ccccc32)CC1 | 1.04 |
| NCCSSCCN | 0.988 |
| COc1ccc2c(c1)OCc1c-2oc2cc(OC)ccc12 | 0.973 |
| CNC(C)[C@H](O)c1ccccc1 (some centres not stated) | 0.993 |
| COc1ccc2c(C)cc(=O)oc2c1 | 0.985 |
| CC(CCc1ccccc1)NC(C)C(O)c1ccc(O)cc1 (configuration not stated) | 1.01 |
| CCN(CC)CCCC(C)Nc1ccnc2cc(Cl)ccc12 (configuration not stated) | 1.05 |
| CN1CCc2cc3c(cc2[C@H]1C1OC(=O)c2c1ccc1c2OCO1)OCO3 (some centres not stated) | 0.997 |

* * *

# Protocol Summary: chemical genetic growth profiling, strain panel (AID 1159580);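 further: tested at 20 µM; growth read once vehicle control cultures reached saturation at 30 °C; 1 = growth at the plate median or of vehicle wells; lower values mean less growth of the strain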
# Study Conditions: S. cerevisiae deletion strains, growth OD, locus YEL061C, strain CIN8 (second series)
Hit rate of the full screen: of about 5,500 compounds, about 2,000 (36%) were called active. About 18% were inconclusive and are not listed. Cut-off read from the data, not from the text of the source: active = normalized growth mostly below about 0.91 (no sharp cut-off); inconclusive = no clear call, values can overlap the other calls; inactive = mostly above about 0.92. The list shows a part of the results.
Possible outcomes: active, inactive

| Compound | Class |
| --- | --- |
| ClC1=C(Cl)C2(Cl)C3C(Cl)C=CC3C1(Cl)C2(Cl)Cl (stereo unspecified) | inactive |
| Oc1cc(Cl)ccc1Oc1ccc(Cl)cc1Cl | active |
| COc1cc(NS(=O)(=O)c2ccc(N)cc2)nc(OC)n1 | inactive |
| CCN(CC)CCCC(C)Nc1ccnc2cc(Cl)ccc12 (stereo unspecified) | inactive |
| CC1CC2C3CCC4=CC(=O)C=C[C@]4(C)[C@@]3(F)[C@@H](O)C[C@]2(C)[C@@]1(O)C(=O)CO (stereo partly specified) | inactive |
| CN(C)c1ccc(C(=C2C=CC(=[N+](C)C)C=C2)c2ccc(N(C)C)cc2)cc1 | active |

* * *

# Protocol Summary: chemical genetic growth profiling, strain panel (AID 1159580);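 further: tested at 20 µM; growth read once vehicle control cultures reached saturation at 30 °C; 1 = growth at the plate median or of vehicle wells; lower values mean less growth of the strain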
# Study Conditions: S. cerevisiae deletion strains, growth OD, locus YPL078C, strain atp4, hits give low values
In all, about 5,500 compounds went through this assay and about 2,000 (36%) were called active. Roughly 18% stayed inconclusive and do not appear here. The list shows a part of the results.
In this section, each of the compounds is paired with its reported normalized growth.

| Compound | normalized growth |
| --- | --- |
| CS(=O)(=O)c1ccc(C2=C(c3ccccc3)C(=O)OC2)cc1 | 0.986 |
| CC(=O)[C@H]1CCC2C3CCC4=CC(=O)CC[C@]4(C)C3CC[C@@]21C (stereo not given in full) | 0.874 |
| CCCCCCNC(=O)n1cc(F)c(=O)[nH]c1=O | 0.77 |
| CN1CCC(=C2c3ccccc3Sc3ccccc32)CC1 | 0.983 |
| CCCCCCCCCCCCCCCC(=O)OC/C=C(C)/C=C/C=C(C)/C=C/C1=C(C)CCCC1(C)C | 1.01 |
| CC1=C(/C=C/C(C)=C/C=C/C(C)=C/C=C/C=C(C)/C=C/C=C(C)/C=C/C(=O)[C@]2(C)C[C@@H](O)CC2(C)C)C(C)(C)C[C@H](O)C1 | 1.05 |
| COc1cc(/C=C/C(=O)/C=C(O)/C=C/c2ccc(O)c(OC)c2)ccc1O | 0.182 |
| COc1ccc2c(c1)OCc1c-2oc2cc(OC)ccc12 | 0.764 |
| COC1=C(OC)C(=O)C(C/C=C(\C)CC/C=C(\C)CC/C=C(\C)CC/C=C(/C)CC/C=C(\C)CC/C=C(\C)CC/C=C(\C)CC/C=C(\C)CC/C=C(\C)CCC=C(C)C)=C(C)C1=O | 0.965 |
| COc1cc(O)c(C(=O)/C=C/c2ccccc2)c(OC)c1 | 0.864 |
| COc1cc2c(cc1OC)[C@@H]1C(=O)c3ccc4oc(C(C)C)cc4c3O[C@@H]1CO2 | 0.989 |
| CCOC(=O)[C@H](CCc1ccccc1)N[C@H]1CCc2ccccc2N(CC(=O)O)C1=O | 0.984 |
| CC(=O)NC1SCCC1=O (stereo not given) | 1.01 |
| CCC(=O)O[C@H]1CCC2C3CCC4=CC(=O)CC[C@]4(C)C3CC[C@@]21C (stereo not given in full) | 0.869 |
| C[N+](C)(C)CCOC(N)=O | 1.01 |
| COc1cc(O)c(C(=O)/C=C/c2ccc(O)c(OC)c2)c(OC)c1 | 0.972 |
| CCN(CC)CCNC(=O)c1cc(Br)c(N)cc1OC | 0.975 |
| CC(=O)OCC[N+](C)(C)C | 1.04 |
| C[C@]12CCC(=O)C=C1CCC1C2CC[C@@]2(C)C1CC[C@@H]2O (stereo not given in full) | 0.997 |
| CC1=C(/C=C/C(C)=C/C=C/C(C)=C/C=C/C=C(C)/C=C/C=C(C)/C=C/C2=C(C)C(=O)CCC2(C)C)C(C)(C)CCC1=O | 0.997 |
